- Test system: primary rat microglia
- Protocol Notes: Cell toxicity (dead cells, size <150 μm2) in coated fibrin (cFib) assay;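 note: share of dead cells sized under 150 µm2 at 10 µM in fibrin-stimulated microglia HTS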
- Experimental Context: primary microglia HTS, fibrin stimulation; decreased size (<150 μm^2) as marker of toxicity
Counter-ions that a name gives are not always drawn.
Lab note: anything with Fibrin % cell toxicity at or over 1% counts as label 1; the rest go in label 0.

{"columns": ["Compound", "Classification"],
 "data": [
  ["Cc1ncc([N+](=O)[O-])n1CC(O)CCl (stereo not drawn)", "label 0"]
]}

Lookup: Identify whether the reported Fibrin % cell toxicity of the following compound is 1% or greater: `C#C[C@]1(O)CC[C@H]2[C@@H]3CCC4=Cc5oncc5C[C@]4(C)[C@H]3CC[C@@]21C`
Found: label 1

Lookup: Could you verify whether the entry CCCCC1=NC2(CCCC2)C(=O)N1Cc1ccc(-c2ccccc2-c2nnn[nH]2)cc1 [Irbesartan, reference compound] shows Fibrin % cell toxicity of no less than 1%?
Found: label 1

Lookup: Exam item: decide whether the reported Fibrin % cell toxicity for CCCNC(C)(C)COC(=O)c1ccccc1 [Meprylcaine Hydrochloride] is at least 1%.
Found: label 0

Lookup: Quick check, Fibrin % cell toxicity >= 1%? `C[N+](C)(C)CCCCCC[N+](C)(C)C`
Found: label 1

Lookup: # bool: Fibrin % cell toxicity of CC1(C)O[C@@H]2C[C@H]3[C@@H]4CCC5=CC(=O)C=C[C@]5(C)[C@H]4[C@@H](O)C[C@]3(C)[C@]2(C(=O)CO)O1 [Desonide] >= 1%
Found: label 1

Lookup: Is Fibrin % cell toxicity for `Cc1cc(-c2ccccc2)nnc1NCCN1CCOCC1` at or above 1%?
Found: label 0

Lookup: Check if Fibrin % cell toxicity >= 1% (inclusive). Item: `Nc1c2ccccc2nc2ccccc12`
Found: label 1

Lookup: Could you please find out whether Cc1cc(-n2c(=O)[nH]c(=O)n(C)c2=O)ccc1Oc1ccc(SC(F)(F)F)cc1 [Toltrazuril, reference compound] has Fibrin % cell toxicity that meets 1% or exceeds it?
Found: label 1

Lookup: Form field: Fibrin % cell toxicity at least 1%? Entry: `CCCCCCCCCCCCCCCC[N+](C)(C)C`
Found: label 1

Lookup: Assess whether reported Fibrin % cell toxicity for CCOC(=O)CC(SP(=S)(OC)OC)C(=O)OCC (stereo not drawn) sits at 1% or higher.
Found: label 0

Lookup: Does Fibrin % cell toxicity meet or surpass 1% for `Cc1c(N(C)CS(=O)(=O)[O-])c(=O)n(-c2ccccc2)n1C.[Na+]` ?
Found: label 1

Lookup: Exam item: decide whether the reported Fibrin % cell toxicity for `Cc1ccc(O)cc1` is at least 1%.
Found: label 0
